Provide the reported furin cleavage Z-score of each item.
- Assayed Target: furin, P09958;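 further: purified furin at 1:10 enzyme:substrate in 50 mM HEPES pH 7.5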
- Sequence (P09958 whole entry): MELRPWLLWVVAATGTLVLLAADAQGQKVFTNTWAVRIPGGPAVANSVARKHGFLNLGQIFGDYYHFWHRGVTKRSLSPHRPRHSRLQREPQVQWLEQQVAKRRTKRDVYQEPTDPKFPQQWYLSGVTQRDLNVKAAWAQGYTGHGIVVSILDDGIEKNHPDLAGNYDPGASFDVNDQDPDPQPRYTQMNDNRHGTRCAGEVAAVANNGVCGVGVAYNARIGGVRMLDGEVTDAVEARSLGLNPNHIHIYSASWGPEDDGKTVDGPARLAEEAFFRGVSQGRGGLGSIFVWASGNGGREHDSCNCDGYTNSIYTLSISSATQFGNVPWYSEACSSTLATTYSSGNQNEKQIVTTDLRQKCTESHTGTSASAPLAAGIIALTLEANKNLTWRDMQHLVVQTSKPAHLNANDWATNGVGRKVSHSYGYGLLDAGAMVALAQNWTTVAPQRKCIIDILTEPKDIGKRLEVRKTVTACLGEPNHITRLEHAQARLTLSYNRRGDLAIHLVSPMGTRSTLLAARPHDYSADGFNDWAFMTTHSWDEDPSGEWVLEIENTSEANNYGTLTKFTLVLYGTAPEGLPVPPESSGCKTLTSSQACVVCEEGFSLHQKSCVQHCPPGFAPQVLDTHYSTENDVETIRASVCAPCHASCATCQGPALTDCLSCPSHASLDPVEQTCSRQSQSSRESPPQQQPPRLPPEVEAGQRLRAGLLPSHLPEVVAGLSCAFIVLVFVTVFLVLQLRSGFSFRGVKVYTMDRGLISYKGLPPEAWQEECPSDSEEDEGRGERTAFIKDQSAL
- Assay Comment: furin cleavage Z-score vs untreated control; higher = more cleavage, active = 3.5 or more, inactive = 1 or less, 8 variable residues between constant flanks
- Run Conditions: 15 min
The list shows a part of the results. How many sequences the whole screen found active is unknown.
Answers are plain numbers.

1) CAQREVPCHRAGNASASA [HC2442]	1.74
2) CARYFRKRRGAGNASASA [FS-960]	11.6
3) CAKKERRPRGAGNASASA [FS-671]	2.08

Now turn to the next sequence.
-- ask furin cleavage Z-score for CAISYRFPRGAGNASASA [FS-37] ?
-- reply 7.38
